test system: MS2 coat protein; test: apparent KD of MS2 coat protein; designed switch direction (-1 OFF switch, 1 ON switch): -1; higher = weaker reporter binding; details: Eterna round: R95; input ligand: microRNA oligo, concentration not stated
In this section we review reported apparent KD of MS2 coat protein values for a set of sequences.
# number then unit; no other words

Name the recorded apparent KD of MS2 coat protein for UAUUCUAGAUAGGAUAUACUUUUUUUUUUUUUCGUAGAAGGAUCUACAUGAGGAUCACCCAUGUUAUCAGCAGU [JR_E6_Sub011] (puzzle: Exclusion 6) .
30.2 nM

Name the recorded apparent KD of MS2 coat protein for AACCCUAGGGUCAGACGCACAAGCUUUUUGCUCGUUUUAACAUGAGGAUCACCCAUGUCUAGUGGAUCUGAUCGGGC [Isreen] (puzzle: Sensor v3, turn-off variant 2) .
137 nM

Name the recorded apparent KD of MS2 coat protein for GAGAAACAUGAGGAUCACCCAUGUGAGGAUAUGAAAAAGAAAAGAAAAGAAAGAAGAAUCAGAAGGCACAAAGA [salish99-ex1_r3_084] (puzzle: Exclusion 1) .
27.9 nM

Name the recorded apparent KD of MS2 coat protein for UCAUACGGUGAGGAUAUCUCCACUAAAGUGUGAAGAGAAGGCGCUACAUGAGGAUCACCCAUGUUUAUGGGCAG [Ex-6 Malc#14] (puzzle: Exclusion 6) .
56.5 nM

Name the recorded apparent KD of MS2 coat protein for AAUAACAGAGGAUAUACUAUUUUAUGUGUUUGUUAUUUUGAACAUGAGGAUCACCCAUGUAGAAGGCUGAUUAA [JMF 49] (puzzle: Exclusion 2) .
39.4 nM

Name the recorded apparent KD of MS2 coat protein for CCUCGACAUGAGGAUCACCCAUGUCAGGAUAUUGUGUUUUUGGUUUUUUACCUUUAGGCAAGAAGGGAUGUGUG [LRO-Excl1-18] (puzzle: Exclusion 1) .
14.4 nM

Name the recorded apparent KD of MS2 coat protein for GUGUAGAGAGGAUAUACAUGAGGAUCACCCAUGUGAAUAAGAUAGAAUAAGAUAAAGUGUAGAAGGCUUAGUGU [Excluse me!!! 20 - Jieux - Exclusion 3] (puzzle: Exclusion 3) .
31.8 nM

Name the recorded apparent KD of MS2 coat protein for UUUUACAUAGGAUAUAGUCUUUUUUACAUGAGGAUCACCCAUGUCUCUCUUUUUUUUUUUCUAGAAGGAUGUUUUU [JR_E5_Sub017] (puzzle: Exclusion 5) .
16.8 nM

Name the recorded apparent KD of MS2 coat protein for AUAAGCUUUUAAAUCCUUAACAUGAGGAUCACCCAUGUUCGUCUUAUGAUGGUCUGAUCCCUGAGGAUCGGACCGUU [JL-sv1-2.03 Brourd Mod] (puzzle: Sensor v3, turn-off variant 1) .
95 nM

New cases:
Name the recorded apparent KD of MS2 coat protein for AAAUACAAGCAAAGAUCUUACAUGAGGAUCACCCAUGUGUUCGUCUUAUAAAGUACUAUCACGAAAGUGAUAGUACA [Sensor 3, v1 - 32] (puzzle: Sensor v3, turn-off variant 1) .
89.7 nM
